Target: Heat shock protein HSP 90-alpha (Homo sapiens, UniProt P07900)
Test: Inhibition of FITC-geldanamycin binding to HSP90alpha (unknown origin) after 3 hrs by fluorescence polarization assay
pIC50: −log10 of the molar value.

{"compound": "O=C(CCCCCCC(=O)Nc1ccccc1)NO [VORINOSTAT]", "pIC50": "< 6.00"}

Just for reference, ChEMBL document CHEMBL4229357 is where these values come from.
